Where do these numbers come from? They come from patent US11613532B2.

- Measurement Target: RORγ (Homo sapiens (Human), UniProt P51449)
- Sequence (P51449 269-508): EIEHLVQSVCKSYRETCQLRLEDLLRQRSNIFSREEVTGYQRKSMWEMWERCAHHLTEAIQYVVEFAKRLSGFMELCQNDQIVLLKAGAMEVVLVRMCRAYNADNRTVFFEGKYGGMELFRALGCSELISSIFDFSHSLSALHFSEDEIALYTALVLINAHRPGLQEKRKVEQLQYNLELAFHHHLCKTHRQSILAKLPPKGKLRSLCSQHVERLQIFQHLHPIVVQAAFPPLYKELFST
- Assay Comment: RORγ Reporter Assay (Gal4)
- Type: cell-based
- Stated Conditions: HEK293 cells co-transfected with RORγ LBD-Gal4 and luciferase reporter; 24 h incubation; absolute IC50
Known IC50 of a selection of compounds
Answer with the figure and its unit, nothing else.

Which measured IC50 belongs to CCN(C[C@H]1CC[C@H](C(F)(F)F)CC1)c1ncnc2c1ccn2C[C@]1(O)CCN(CC(N)=O)C[C@H]1O (single isomer, unassigned) [BD-5-1-2] , tested on RORγ (Homo sapiens (Human), UniProt P51449)?
4.3 nM

Try this compound next: CCN(CC1(F)CCC(C(F)(F)F)CC1)c1ncnc(NC[C@@H]2CCN(CC(N)=O)C[C@H]2O)c1F (single isomer, unassigned) [Example A6-7-1]
43 nM

Try this compound next: CCN(CC1CCC2(CC1)CC2(F)F)c1ncnc(NC[C@H]2CCN(CC(N)=O)C[C@@H]2O)c1F (relative stereo) [Example A6-1-1-2]
44 nM

Try this compound next: CCN(CC1CCC2(CC1)COC2)c1ncnc(NC[C@@H]2CCN(CC(N)=O)C[C@H]2O)c1F (single isomer, unassigned) [Example A6-6-2]
980 nM

Try this compound next: CCN(CC1CCC2(CC1)COC2)c1ncnc(NC[C@@H]2CCN(CC(N)=O)C[C@H]2O)c1F (single isomer, unassigned) [Example A6-6-1]
690 nM

Try this compound next: NC(=O)CN1CC[C@@H](CNc2ncnc(N(C[C@H]3CC[C@H](C(F)(F)F)CC3)C3CCC3)c2F)[C@H](O)C1 (racemic) [Example A6-5]
17 nM
